These entries and their values trace back to the supplement of paper PMC10065799.

The sequences listed here are annotated with their SH2 binding enrichment.
# MEASUREMENT_TARGET: c-Src SH2;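 further: peptide library displayed on the E. coli surface as eCPX fusions, selected cells deep-sequenced, score is each peptide's frequency after selection divided by its frequency in the input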
# METHOD_SUMMARY: SH2 binding enrichment of the phosphorylated peptide, bacterial display (enrichment ratio); higher = better substrate or ligand; peptides without Tyr show the background
Quick one: just the number, no unit, thanks!

[[record]]
input_sequence = "AEEKEYHAEGG [EGFR_Y869]"
measurement_type = "SH2 binding enrichment"
readout_value = 0.471

[[record]]
input_sequence = "FAKTQYPDVYA [CRX_Y63]"
measurement_type = "SH2 binding enrichment"
readout_value = 0.418

[[record]]
input_sequence = "PLQHVYKIGGI [EEF1A2_Y254_D252H]"
measurement_type = "SH2 binding enrichment"
readout_value = 0.517

[[record]]
input_sequence = "GFAIVYGTIIL [GPR179_Y460]"
measurement_type = "SH2 binding enrichment"
readout_value = 0.364

[[record]]
input_sequence = "THPFLYLSLEI [MLH1_Y293]"
measurement_type = "SH2 binding enrichment"
readout_value = 0.682


Sample WVFNHYRWFIW [BRCA2_Y2624_I2627F_YF] ; SH2 binding enrichment observed: 0.587

Sample LNTFHHAGVSA [POLR2A_Y1109_Y1109H] ; SH2 binding enrichment observed: 0.547

Sample LVSCTYQLATG [FGFR2_Y608_R612T] ; SH2 binding enrichment observed: 0.456

Sample MASISYDFCRV [BST2_Y6_T4I_YF] ; SH2 binding enrichment observed: 0.672

Sample PTTKTYFRHFD [HBA1_Y43_P45R] ; SH2 binding enrichment observed: 0.457

Sample TTSQPYRRLCS [USH2A_Y534_C536R] ; SH2 binding enrichment observed: 0.581

Sample AEPDIYQEKLS [USP54_Y1233] ; SH2 binding enrichment observed: 0.674

Sample LRYDSYWSYCN [SLC20A2_Y433_S434W] ; SH2 binding enrichment observed: 1.43

Sample LWKWKYEELKE [CCDC102B_Y299] ; SH2 binding enrichment observed: 0.81
